Data provenance is paper PMC6919601.

Below, each entry is listed alongside its reported % Inhibition @ 10 uM.
ASSAYED_TARGET: DPAP1 (Plasmodium falciparum);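 further: 30 min substrate incubation versus DMSO and 10 µM JCP410 controls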
Sequence (Q8IIJ9 whole entry, looked up): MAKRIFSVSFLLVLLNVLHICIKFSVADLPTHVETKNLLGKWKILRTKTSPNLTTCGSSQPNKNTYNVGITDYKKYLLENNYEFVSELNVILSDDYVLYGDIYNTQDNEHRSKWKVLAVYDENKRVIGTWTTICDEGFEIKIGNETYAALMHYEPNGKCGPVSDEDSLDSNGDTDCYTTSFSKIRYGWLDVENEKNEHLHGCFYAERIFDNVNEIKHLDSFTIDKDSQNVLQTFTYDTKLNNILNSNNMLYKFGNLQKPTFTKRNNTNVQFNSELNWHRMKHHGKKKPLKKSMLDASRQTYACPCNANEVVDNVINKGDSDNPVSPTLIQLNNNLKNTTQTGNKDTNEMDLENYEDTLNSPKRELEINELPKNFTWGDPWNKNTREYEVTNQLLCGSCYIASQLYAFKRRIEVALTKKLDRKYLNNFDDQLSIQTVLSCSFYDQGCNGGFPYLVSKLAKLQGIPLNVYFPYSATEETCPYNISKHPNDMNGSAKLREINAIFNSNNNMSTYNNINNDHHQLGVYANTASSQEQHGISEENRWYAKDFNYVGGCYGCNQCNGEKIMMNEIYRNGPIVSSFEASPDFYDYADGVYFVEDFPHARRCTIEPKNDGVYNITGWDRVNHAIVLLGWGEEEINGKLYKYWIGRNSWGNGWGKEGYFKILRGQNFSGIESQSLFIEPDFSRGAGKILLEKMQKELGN
PROTOCOL_TEXT: primary screen, percent inhibition; read by cleavage of a fluorogenic dipeptide substrate; higher = more effect of the substance
Parameters: species or system P. falciparum D10 trophozoite lysates; single well
In all, about 110,000 compounds went through this assay and about 230 (0.21%) showed an effect of 50% or more. This excerpt belongs to a sample that is enriched for strong results.

{"MOLECULE": "c1ccc(C(CCNC2CN3CCC2CC3)c2ccccc2)cc1 (stereo not drawn)", "% Inhibition @ 10 uM / %": -0.0908}
{"MOLECULE": "c1ccc(CSc2nccn2Cc2ccccc2)cc1", "% Inhibition @ 10 uM / %": -1.97}
{"MOLECULE": "COc1ccc(CC(=O)Nc2sc3c(c2C(N)=O)CCCC3)cc1", "% Inhibition @ 10 uM / %": 2.13}
{"MOLECULE": "Cc1cccc(NC(=O)COc2ccc(C)cc2C)c1", "% Inhibition @ 10 uM / %": -2.32}
{"MOLECULE": "O=C(NCCc1ccccc1)C1CCCN(S(=O)(=O)c2cccc3cccnc23)C1 (stereo not drawn)", "% Inhibition @ 10 uM / %": -4.69}
{"MOLECULE": "COC(=O)CSc1nc(C)c(C)c(C)c1C#N", "% Inhibition @ 10 uM / %": 4.15}
{"MOLECULE": "Cc1nc(SCC(=O)O)c(C#N)c(C)c1C", "% Inhibition @ 10 uM / %": 72.9}
{"MOLECULE": "Cc1ccc(C2C(C#N)=C(N)SC(N)=C2C#N)o1", "% Inhibition @ 10 uM / %": 47.9}
{"MOLECULE": "COc1ccc2nc(Cl)c(C3CC(c4ccc(Cl)cc4)=NN3C(C)=O)cc2c1 (stereo not drawn)", "% Inhibition @ 10 uM / %": 4.18}
{"MOLECULE": "COc1cc(CN(C(=S)NCC(=O)NC2CCCC2)C2CCCC2)cc(OC)c1OC", "% Inhibition @ 10 uM / %": 1.27}
{"MOLECULE": "OC(Cn1ccnc1)(c1ccc(F)cc1)c1ccccn1 (stereo not drawn)", "% Inhibition @ 10 uM / %": 2.62}
{"MOLECULE": "Cc1cc(C)c(C#N)c(S)n1", "% Inhibition @ 10 uM / %": 89.9}
{"MOLECULE": "CCOc1ccc(S(=O)(=O)N2CCSC2c2ccc(OC)c(OC)c2)cc1 (stereo not drawn)", "% Inhibition @ 10 uM / %": 25.4}
{"MOLECULE": "Cc1nc(NC(=O)COc2ccc(C(C)(C)C)cc2)ccc1Br", "% Inhibition @ 10 uM / %": -7.81}
{"MOLECULE": "Cc1cc(-c2ccco2)c(C#N)c(N)n1", "% Inhibition @ 10 uM / %": 1.38}
{"MOLECULE": "Cc1cc(C(F)(F)F)nn1CC(=O)Nc1sc2c(c1C(N)=O)CCCC2", "% Inhibition @ 10 uM / %": -1.49}
{"MOLECULE": "CC1CC2(C)CC(C(=O)O2)C1C(=O)O (stereo not drawn)", "% Inhibition @ 10 uM / %": -1.76}
{"MOLECULE": "Cc1cc(C(F)(F)F)c(C#N)c(SCc2ccccc2)n1", "% Inhibition @ 10 uM / %": 2.23}
{"MOLECULE": "CC(=O)Nc1ccc(Oc2cccc(Oc3ccc(NC(C)=O)cc3)c2)cc1", "% Inhibition @ 10 uM / %": -6.02}
{"MOLECULE": "CCN(CC)C(=O)Cn1cc(S(=O)(=O)Cc2cc(C)ccc2C)c2ccccc21", "% Inhibition @ 10 uM / %": 0.292}
{"MOLECULE": "CCOc1cc(CN2CCN(Cc3ccccc3)CC2)ccc1O", "% Inhibition @ 10 uM / %": 3.9}
{"MOLECULE": "O=C(Nc1ccccc1)N1CCN(c2ccccc2)CC1", "% Inhibition @ 10 uM / %": 1.33}
{"MOLECULE": "Cc1cc(N(C)C)c(=O)n(-c2ccccc2)n1", "% Inhibition @ 10 uM / %": 5.74}
{"MOLECULE": "N#CC1=C(N)SC(N)=C(C#N)C1c1c(Cl)cccc1Cl", "% Inhibition @ 10 uM / %": 28.7}
{"MOLECULE": "CCc1nc(N)c(C#N)c(-c2ccc(Br)s2)c1C", "% Inhibition @ 10 uM / %": -3.13}
{"MOLECULE": "CCN1CCN(C(=O)CS(=O)(=O)Cc2nc(-c3ccc(C)cc3)oc2C)CC1", "% Inhibition @ 10 uM / %": -3.7}
{"MOLECULE": "CCN1C(=O)C(=CNc2ccc3c(c2)-c2ccccc2C3)C(=O)N(CC)C1=O", "% Inhibition @ 10 uM / %": -0.996}
{"MOLECULE": "Cc1nc2ccc(Cl)cc2c2c(N)c3ccccc3n12", "% Inhibition @ 10 uM / %": 66}
{"MOLECULE": "CC(Oc1cccc(Cl)c1)C(=O)Nc1sc2c(c1C(N)=O)CCCCC2 (stereo not drawn)", "% Inhibition @ 10 uM / %": 61.2}
{"MOLECULE": "Cc1cc(C)c2c(=O)n(CC(=O)NCc3ccc4c(c3)OCO4)sc2n1", "% Inhibition @ 10 uM / %": 12}
{"MOLECULE": "CCOc1ccc(CC(=O)Nc2sc3c(c2C(N)=O)CCCC3)cc1OCC", "% Inhibition @ 10 uM / %": -13.5}
{"MOLECULE": "CSc1nc(C)cc(C(F)(F)F)c1C#N", "% Inhibition @ 10 uM / %": 4.97}
{"MOLECULE": "CCC(=O)Nc1ccc(Oc2ccc(NC(=O)CC)c(NC(=O)CC)c2)cc1", "% Inhibition @ 10 uM / %": 8.21}
{"MOLECULE": "CCOc1cc(CN2CCN(C)CC2)ccc1O", "% Inhibition @ 10 uM / %": 2.33}
{"MOLECULE": "Cc1cc(-c2ccc(N)cc2)nc2ccc3ccccc3c12", "% Inhibition @ 10 uM / %": 52.7}
{"MOLECULE": "Cc1cc(-c2ccc(O)cc2)nc2ccc3ccccc3c12", "% Inhibition @ 10 uM / %": -1.97}
{"MOLECULE": "Cc1ccc(NC(=O)COc2ccc(C)cc2C)cc1", "% Inhibition @ 10 uM / %": -8.06}
{"MOLECULE": "COc1ccc(C2=CC(c3ccc(F)c(Br)c3)n3nnnc3N2)cc1 (stereo not drawn)", "% Inhibition @ 10 uM / %": 1.73}
{"MOLECULE": "Cc1cc(C)c2c(=O)n(CC(=O)NCCc3ccc(Cl)cc3)sc2n1", "% Inhibition @ 10 uM / %": 15.6}
{"MOLECULE": "O=C1c2cccnc2C(=O)N1c1ccccc1-c1ccccc1", "% Inhibition @ 10 uM / %": -2.29}
{"MOLECULE": "NC(=O)c1c(NC(=O)COc2ccc(Cl)cc2)sc2c1CCCCCC2", "% Inhibition @ 10 uM / %": -4.33}
{"MOLECULE": "CCOc1ccc(C(=O)Nc2ccc(-c3nc4ncccc4o3)cc2)cc1Cl", "% Inhibition @ 10 uM / %": -4.82}
{"MOLECULE": "COc1ccc(CC(=O)Nc2sc3c(c2C(N)=O)CCCCC3)cc1OC", "% Inhibition @ 10 uM / %": 57}
{"MOLECULE": "Cc1cc(C(F)(F)F)c(C#N)c(S)n1", "% Inhibition @ 10 uM / %": 82.2}
{"MOLECULE": "CC(=O)Nc1ccc(Oc2ccc(NC(C)=O)c(NC(C)=O)c2)cc1", "% Inhibition @ 10 uM / %": 70.7}
{"MOLECULE": "CC1=CC2=NC(=O)/C(=C\\c3cccn3CCCOc3ccc(C)cc3)C(=N)N2O1", "% Inhibition @ 10 uM / %": -1.43}
{"MOLECULE": "Cc1ccc(S(=O)(=O)N(CC(=O)NC2CC3CCC2C3)c2ccc(Cl)cc2)cc1 (stereo not drawn)", "% Inhibition @ 10 uM / %": -0.695}
{"MOLECULE": "COc1ccccc1N1C(=O)CC(N2CCN(C)CC2)C1=O (stereo not drawn)", "% Inhibition @ 10 uM / %": -6.08}
